Tested on: 192522-019-R-J2-PDC complex tumor spheroid viability
test: Anticancer human tumor 192522-019-R-J2-PDC patient-derived colon adenocarcinoma cell line growth inhibition [POLQ]
measurement_context: second compound 0.316 µM; first compound 0.1 µM; stronger effect = lower value
reported_endpoint: viability, T/C (%)
Write the number in % without appending the unit.

Example cases with answers are listed next.
- compound: "O=C(c1cc(Cc2n[nH]c(=O)c3ccccc23)ccc1F)N1CCN(C(=O)C2CC2)CC1 + COC1C(OC(N)=O)C(O)C(Oc2ccc3c(O)c(NC(=O)c4ccc(O)c(CC=C(C)C)c4)c(=O)oc3c2C)OC1(C)C"
  viability, T/C / %: 98.9
- compound: "CCc1cc2c(N3CCc4c(cc(Cn5ccnc5)cc4-c4cn(C)nc4C(F)(F)F)C3=O)cc(C)nc2c(OC)n1 + Cc1cccc(N(C)C(=O)C2C(O)CCN2c2nc(C)cc(C(F)(F)F)c2C#N)c1"
  viability, T/C / %: 99.1
- compound: "C#Cc1c(F)ccc2cc(O)cc(-c3ncc4c(N5CC6CCC(C5)N6)nc(OCC56CCCN5CC(F)C6)nc4c3F)c12 (stereo not given) + Cc1cccc(N(C)C(=O)C2C(O)CCN2c2nc(C)cc(C(F)(F)F)c2C#N)c1"
  viability, T/C / %: 87.8

Attention now turns to another entry.
Consider CC1COCCN1c1cc(C2(O)CC3CCC(C2)O3)c2cnn(-c3ccn[nH]3)c2n1 (stereo not given) + COC1C(OC(N)=O)C(O)C(Oc2ccc3c(O)c(NC(=O)c4ccc(O)c(CC=C(C)C)c4)c(=O)oc3c2C)OC1(C)C . Its measured viability, T/C is 83.4

====

System: 192522-019-R-J2-PDC complex tumor spheroid viability
test: Anticancer human tumor 192522-019-R-J2-PDC cell line growth inhibition [POLQ];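 further: spheroids exposed to drugs for seven days before reading; 100% = DMSO vehicle control viability in luminescence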
measurement_context: second compound 0.0316 µM; first compound 0.1 µM; stronger effect = lower value
Mark Yes for viability, T/C under 80%, No if at or over.

Report whether reported viability, T/C is lower than 80% (strictly) for CC1COCCN1c1cc(C2(S(C)(=N)=O)CC2)nc(-c2ccnc3[nH]ccc23)n1 (stereo unspecified) + COC1C(OC(N)=O)C(O)C(Oc2ccc3c(O)c(NC(=O)c4ccc(O)c(CC=C(C)C)c4)c(=O)oc3c2C)OC1(C)C
No

Please determine if CCc1c2c(nc3ccc(O)cc13)-c1cc3c(c(=O)n1C2)COC(=O)[C@]3(O)CC + Nc1ccc(C#CCN(C(=O)Cc2ncc(C(F)(F)F)cc2C(F)(F)F)c2ccc(F)cc2)nn1 is below 80% in terms of viability, T/C.
Yes

For this molecule, is viability, T/C lower than 80%? CCc1cc2c(N3CCc4c(cc(Cn5ccnc5)cc4-c4cn(C)nc4C(F)(F)F)C3=O)cc(C)nc2c(OC)n1 + COC1C(OC(N)=O)C(O)C(Oc2ccc3c(O)c(NC(=O)c4ccc(O)c(CC=C(C)C)c4)c(=O)oc3c2C)OC1(C)C
No

Bench note: check whether CC1COCCN1c1cc(C2(O)CC3CCC(C2)O3)c2cnn(-c3ccn[nH]3)c2n1 (stereo unspecified) + Nc1ccc(C#CCN(C(=O)Cc2ncc(C(F)(F)F)cc2C(F)(F)F)c2ccc(F)cc2)nn1 shows viability, T/C below 80%
Yes

Does CC1COCCN1c1cc(C2(S(C)(=N)=O)CC2)nc(-c2ccnc3[nH]ccc23)n1 (stereo unspecified) + Nc1ccc(C#CCN(C(=O)Cc2ncc(C(F)(F)F)cc2C(F)(F)F)c2ccc(F)cc2)nn1 have viability, T/C strictly under 80%?
No

I'd appreciate it if you could check whether O=C(Nc1ccc(O)c(NS(=O)(=O)c2ccc(F)cc2)c1)c1ccc(-c2ccccc2)cc1 + Nc1ccc(C#CCN(C(=O)Cc2ncc(C(F)(F)F)cc2C(F)(F)F)c2ccc(F)cc2)nn1 has viability, T/C smaller than 80%.
No

Decide: viability, T/C of CC(C)n1c(=O)n(C)c2cnc3cc(F)c(-c4ccc(OCCCN5CCCCC5)nc4)cc3c21 + Cc1cccc(N(C)C(=O)C2C(O)CCN2c2nc(C)cc(C(F)(F)F)c2C#N)c1 strictly below 80%?
No

In the record for C=CCn1c(=O)c2cnc(Nc3ccc(N4CCN(C)CC4)cc3)nc2n1-c1cccc(C(C)(C)O)n1 + Nc1ccc(C#CCN(C(=O)Cc2ncc(C(F)(F)F)cc2C(F)(F)F)c2ccc(F)cc2)nn1 , is viability, T/C less than 80%?
No

Is the reported viability, T/C for COc1cc2cc(C(=O)CCC(=O)O)sc2cc1OC + COC1C(OC(N)=O)C(O)C(Oc2ccc3c(O)c(NC(=O)c4ccc(O)c(CC=C(C)C)c4)c(=O)oc3c2C)OC1(C)C strictly below 80%?
No
